molecular target: Na^+ /H^+ exchanger of rabbit erythrocytes (Oryctolagus cuniculus, UniProt P23791); construct: determine the Na^+ influx into the erythrocytes via Na^+ /H^+ exchange by flame photometry; endogenous in cells; host or cells: erythrocytes in blood from the ear arteries of cholesterol-fed White New Zealand rabbits (Ivanovas); experiment: Inhibition of the Na^+ /H^+ Exchanger of Rabbit Erythrocytes (amiloride-sensitive Na^+ influx, flame photometry); format: cell-based, rabbit (White New Zealand); conditions: cholesterol-fed rabbits, pH 7.4, 37° C.
Sequence (P23791 whole entry): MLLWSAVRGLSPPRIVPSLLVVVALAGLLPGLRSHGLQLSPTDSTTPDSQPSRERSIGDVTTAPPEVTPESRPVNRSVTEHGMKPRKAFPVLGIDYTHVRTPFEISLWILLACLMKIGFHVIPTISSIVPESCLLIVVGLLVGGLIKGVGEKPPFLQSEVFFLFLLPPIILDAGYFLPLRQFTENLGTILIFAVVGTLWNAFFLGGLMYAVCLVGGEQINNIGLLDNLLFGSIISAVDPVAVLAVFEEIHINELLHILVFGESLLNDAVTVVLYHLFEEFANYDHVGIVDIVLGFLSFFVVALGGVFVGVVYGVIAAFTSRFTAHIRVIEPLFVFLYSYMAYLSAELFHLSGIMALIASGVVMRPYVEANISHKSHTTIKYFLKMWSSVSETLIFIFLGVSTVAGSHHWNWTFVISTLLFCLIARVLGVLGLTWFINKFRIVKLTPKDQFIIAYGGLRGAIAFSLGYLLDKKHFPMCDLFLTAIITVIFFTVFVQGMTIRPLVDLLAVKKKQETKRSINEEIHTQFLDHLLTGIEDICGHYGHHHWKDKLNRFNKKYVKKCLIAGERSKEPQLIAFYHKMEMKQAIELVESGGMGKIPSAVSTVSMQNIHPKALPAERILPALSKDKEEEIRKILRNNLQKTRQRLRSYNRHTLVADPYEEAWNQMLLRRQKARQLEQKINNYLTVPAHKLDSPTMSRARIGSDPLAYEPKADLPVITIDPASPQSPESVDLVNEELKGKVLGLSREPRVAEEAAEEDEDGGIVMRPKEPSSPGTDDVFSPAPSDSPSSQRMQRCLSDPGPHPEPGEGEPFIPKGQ
Where a name gives a salt, the structure may show the parent alone.
measure-name: pIC50
Quick note: pIC50 values are minus log10 of concentrations in mol/L.

**Query** State the recorded pIC50 for this entry: NC(N)=NC(=O)c1ccc(Oc2ccc[n+]([O-])c2)c(C(F)(F)F)c1 [Example 1, hydrochloride]
**Result** 7.10

**Query** And what about the compound Cc1ccc2cc(Oc3ccc(C(=O)N=C(N)N)cc3C(F)(F)F)ccc2[n+]1[O-] [Example 3, hydrochloride] ?
**Result** 7.72

// next entry
**Query** State the recorded pIC50 for this entry: Cc1ccc2cc(Oc3ccc(C(=O)N=C(N)N)cc3S(C)(=O)=O)ccc2[n+]1[O-] [Example 2, hydrochloride]
**Result** 6.52
